assay: Solubility in water and bio-relevant media at 37° C. (HPLC of filtrate, pH of filtrate, XRPD of filter cake); format: physicochemical; details: pH of the filtrate, SIF, 24 h
result-type: PH 24 h
The answer should be a number; do not append a unit.

Cc1nn(-c2cc(Cl)c(Oc3cc(C(C)C)c(=O)[nH]n3)c(Cl)c2)c(=O)[n-]c1=O.[K+] [Potassium salt Form 2] :: 7.46

Per the records, this compound ( Cc1nn(-c2cc(Cl)c(Oc3cc(C(C)C)c(=O)[nH]n3)c(Cl)c2)c(=O)[nH]c1=O [Free acid Form I] ) has PH 24 h equal to 6.79

Per the records, this compound ( Cc1nn(-c2cc(Cl)c(Oc3cc(C(C)C)c(=O)[nH]n3)c(Cl)c2)c(=O)[n-]c1=O.[Na+] [Sodium salt Form A] ) has PH 24 h equal to 7.65

Per the records, this compound ( Cc1nn(-c2cc(Cl)c(Oc3cc(C(C)C)c(=O)[nH]n3)c(Cl)c2)c(=O)[n-]c1=O.[K+] [Potassium salt Form 1] ) has PH 24 h equal to 7.44
